test: Pharmacokinetic study of Compound A alone and in combination with Indinavir in healthy human males (Example 11); format: in vivo; details: male, human, plasma, po, 1600 mg, 1600 mg single oral dose, suspension of sulfate salt, fasted, n=6; plasma 24 hours after dosing; read-out: C24 hrs
Reported metric: concentration at 24 h (nM)
Lab book: enter the figure in nM, no units written.

Reported concentration at 24 h for CC(C)(C)NC(=O)[C@@H]1CN(Cc2cc3ccccc3o2)CCN1C[C@@H](O)C[C@@H](Cc1ccccc1)C(=O)N[C@H]1c2ccccc2C[C@H]1O : what is it?
46

---

assay: Pharmacokinetic study of Compound A alone and in combination with Indinavir in healthy human males (Example 11); assay type: in vivo; conditions: male, human, plasma, po, 400 mg Compound A + 800 mg IDV (Indinavir) co-administered, single oral dose, fasted, n=6; arithmetic mean (CV %)
Reported metric: AUC (µM·h)
Lab book: enter the figure in µM·h, no units written.

Reported AUC for CC(C)(C)NC(=O)[C@@H]1CN(Cc2cc3ccccc3o2)CCN1C[C@@H](O)C[C@@H](Cc1ccccc1)C(=O)N[C@H]1c2ccccc2C[C@H]1O : what is it?
12.2
